assay: in vivo; conditions: Macaca nemestrina (macaque), sc, LNMC/plasma ratio 192 h
measured attribute: Kp at 192 h

>  <smiles>
CC(C)c1nc(CN(C)C(=O)N[C@H](C(=O)N[C@@H](Cc2ccccc2)C[C@H](O)[C@H](Cc2ccccc2)NC(=O)OCc2cncs2)C(C)C)cs1

>  <measurement>
23

$$$$

====

experiment: PBMC intracellular drug concentrations after single subcutaneous injection; settings: monkey, PBMC, sc, AUCPBMC, ATV-RTV-TFV DcNP, single subcutaneous dose, macaques; PBMC intracellular; geometric mean (95% CI)

>  <compound>
CC(C)c1nc(CN(C)C(=O)N[C@H](C(=O)N[C@@H](Cc2ccccc2)C[C@H](O)[C@H](Cc2ccccc2)NC(=O)OCc2cncs2)C(C)C)cs1 [RTV, ritonavir]

>  <result unit>
µM·h

>  <AUC>
79

$$$$

The measured values listed here are drawn from paper PMC6553477.
